Taken from PubChem BioAssay AID1963845.

Tested on: 429239-143-T-J1-PDC complex spheroid viability
Experiment: Anticancer human tumor 429239-143-T-J1-PDC patient-derived small cell lung carcinoma cell line growth inhibition [POLQ]
Settings: second compound 0.316 µM; first compound 0.1 µM; active compounds read low
reported_metric: viability, T/C (%)
Number in %, nothing else.

Answered examples (2):
| molecule | reported_metric | unit_info | numeric_result |
| --- | --- | --- | --- |
| C#Cc1c(F)ccc2cc(O)cc(-c3ncc4c(N5CC6CCC(C5)N6)nc(OCC56CCCN5CC(F)C6)nc4c3F)c12 (stereo not drawn) + Nc1ccc(C#CCN(C(=O)Cc2ncc(C(F)(F)F)cc2C(F)(F)F)c2ccc(F)cc2)nn1 | viability, T/C | % | 93 |
| CC1COCCN1c1cc(C2(O)CC3CCC(C2)O3)c2cnn(-c3ccn[nH]3)c2n1 (stereo not drawn) + Cc1cccc(N(C)C(=O)C2C(O)CCN2c2nc(C)cc(C(F)(F)F)c2C#N)c1 | viability, T/C | % | 41.3 |

Please look at the following molecule next.
May I ask what viability, T/C has been recorded for CC(C)n1c(=O)n(C)c2cnc3cc(F)c(-c4ccc(OCCCN5CCCCC5)nc4)cc3c21 + Cc1cccc(N(C)C(=O)C2C(O)CCN2c2nc(C)cc(C(F)(F)F)c2C#N)c1 ?
93.9

----------
Test system: 429239-143-T-J1-PDC complex spheroid viability
Test: Anticancer human tumor 429239-143-T-J1-PDC cell line growth inhibition [POLQ];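 note: luminescence signal used as surrogate measure of viable cells; spheroids exposed to compounds for seven days before readout; 100% = DMSO vehicle control viability as luminescence relative to vehicle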
Conditions: second compound 0.0316 µM; first compound 0.01 µM; active compounds read low
Kindly apply the following: TRUE if viability, T/C is less than 90%, FALSE in every other case.

Worked examples follow.
| compound | qualitative_label |
| --- | --- |
| CCc1c2c(nc3ccc(O)cc13)-c1cc3c(c(=O)n1C2)COC(=O)[C@]3(O)CC + Nc1ccc(C#CCN(C(=O)Cc2ncc(C(F)(F)F)cc2C(F)(F)F)c2ccc(F)cc2)nn1 | TRUE |
| CC[C@@]1(O)C(=O)OCc2c1cc1n(c2=O)Cc2cc3c(CN(C)C)c(O)ccc3nc2-1 + Cc1cccc(N(C)C(=O)C2C(O)CCN2c2nc(C)cc(C(F)(F)F)c2C#N)c1 | TRUE |
| CC[C@@]1(O)C(=O)OCc2c1cc1n(c2=O)Cc2cc3c(CN(C)C)c(O)ccc3nc2-1 + COC1C(OC(N)=O)C(O)C(Oc2ccc3c(O)c(NC(=O)c4ccc(O)c(CC=C(C)C)c4)c(=O)oc3c2C)OC1(C)C | TRUE |
| COc1cccc(OCCCN)c1-c1cc(Nc2cnc(C#N)cn2)n[nH]1 + Nc1ccc(C#CCN(C(=O)Cc2ncc(C(F)(F)F)cc2C(F)(F)F)c2ccc(F)cc2)nn1 | FALSE |
| COc1cccc(OCCCN)c1-c1cc(Nc2cnc(C#N)cn2)n[nH]1 + Cc1cccc(N(C)C(=O)C2C(O)CCN2c2nc(C)cc(C(F)(F)F)c2C#N)c1 | FALSE |

Alright, here's another compound for you.
Quick check: does CC[C@@]1(O)C(=O)OCc2c1cc1n(c2=O)Cc2cc3c(CN(C)C)c(O)ccc3nc2-1 + Nc1ccc(C#CCN(C(=O)Cc2ncc(C(F)(F)F)cc2C(F)(F)F)c2ccc(F)cc2)nn1 have viability, T/C under 90%?
TRUE
